Experimental Target: HLA-B*0702 (human)
Experiment: competition binding assay, purified HLA, labelled probe peptide
For each record, write down the corresponding IC50.
Please state the number and follow it with the unit.

[in] Recorded IC50 for APTGSGKST (modifications not checked) , please?
[out] 370 nM

[in] Next entry: LPRRGPRLG (modifications not checked)
[out] 124 nM

[in] What do you have for AAKLSALGL (modifications not checked) ?
[out] 277 nM
